Test system: SN12C
protocol_text: NCI tumour cell line growth inhibition, 48 h
The source made the active and inactive calls. Cut-off read from the data, not from the text of the source: active = GI50 up to about 1.1 µM and inactive = higher.
metric_name: GI50

{"compound": "O=c1ccn(C2OC(COC3CCCCO3)C(OC3CCCCO3)C2OC2CCCCO2)c(=O)n1-c1ccccc1 (stereo not given)", "metric_name": "GI50", "result_value": "> 100 µM (inactive)"}
{"compound": "CNC(=S)NNc1ncnc2c1ncn2-c1ccc(C)cc1", "metric_name": "GI50", "result_value": "> 100 µM (inactive)"}
{"compound": "Oc1ccccc1/C=N/N1C(=S)N(C23CC4CC(CC(C4)C2)C3)C(=N\\c2ccccc2)/C1=N/c1ccccc1", "metric_name": "GI50", "result_value": "> 100 µM (inactive)"}
{"compound": "CC1(O)CC2C(CC1SC1CC3C(CC1(C)O)C3(C)C)C2(C)C (stereo not given)", "metric_name": "GI50", "result_value": "36.1 µM (inactive)"}
{"compound": "CN(C)CCCOC(=O)C(c1ccccc1)C1(O)CCSCC1 (stereo not given)", "metric_name": "GI50", "result_value": "> 100 µM (inactive)"}
{"compound": "COc1ccc(Nc2nc3ccccc3nc2C(=O)O)cc1", "metric_name": "GI50", "result_value": "80.2 µM (inactive)"}

[in] Requested read-out: GI50. Entry: O=C1C2C(C(=O)N1c1ccccc1)C1([N+](=O)[O-])C=C3c4ccccc4N(C(=O)c4ccccc4)C32C2C(=O)N(c3ccccc3)C(=O)C21 (stereo not given)
[out] > 100 µM (inactive)

* * *

Tested on: HCT-116
protocol_text: NCI tumour cell line growth inhibition, 48 h
The source made the active and inactive calls. No stated cut-off is given here; in the data, active = GI50 up to about 1.1 µM and inactive = higher.
Answer with one of the outcomes active, inactive

{"compound": "O=C(c1ccccc1)C1N=NN(Cc2ccccc2[N+](=O)[O-])C1C(=O)c1ccccc1 (stereo not given)", "discrete_label": "inactive"}
{"compound": "COc1cc(OC)nc(-n2c(N)c(C(=O)O)c3ccc([N+](=O)[O-])cc3c2=O)n1", "discrete_label": "inactive"}
{"compound": "CS(=O)(=O)N/N=C/CN1C(=O)c2ccccc2C1=O", "discrete_label": "inactive"}
{"compound": "Cc1c(C(=O)/C=C/c2ccccc2Cl)[n+]([O-])c2ccccc2[n+]1[O-]", "discrete_label": "inactive"}
{"compound": "C/C(=N\\NC(=O)N/N=C(\\C)c1ccccn1)c1ccccn1", "discrete_label": "active"}
{"compound": "COc1ccc2cc(C(C)C(=O)N3CCOC3=O)ccc2c1 (stereo not given)", "discrete_label": "inactive"}
{"compound": "O=C(O)c1ccccc1NCn1c(=S)sc2ccccc21", "discrete_label": "inactive"}
{"compound": "Oc1ccccc1/C=N/N1C(=S)N(C23CC4CC(CC(C4)C2)C3)C(=N\\c2ccccc2)/C1=N/c1ccccc1", "discrete_label": "inactive"}
{"compound": "CN(C)CN1C(=O)/C(=N\\n2c(S)nnc2-c2ccncc2)c2ccccc21", "discrete_label": "inactive"}

[in] For COc1ccc2c(-c3ccc(O)cc3)c(Oc3ccc(Cl)cc3)c(=O)oc2c1 , which call appears in the assay record?
[out] inactive

* * *

Test system: NCI-H23
protocol_text: NCI tumour cell line growth inhibition, 48 h
Active and inactive are the calls of the source. Rule as the data show it: active = GI50 up to about 1.1 µM and inactive = higher.
metric_name: GI50

{"molecule": "c1ccc(-c2c(-c3[nH]c4ccccc4c3-c3ccccc3)[nH]c3ccccc23)cc1", "GI50": "2.63 µM (inactive)"}
{"molecule": "O=c1[nH]nc(Cc2ccc(Cl)cc2)n1/N=C/c1cccs1", "GI50": "24.9 µM (inactive)"}
{"molecule": "COc1cc(-c2nc3cc(F)ccc3s2)ccc1O", "GI50": "42.2 µM (inactive)"}
{"molecule": "CCOc1cc(C=O)ccc1O", "GI50": "> 100 µM (inactive)"}
{"molecule": "O=C1/C(=C/c2ccc(Cl)c(Cl)c2)CNC/C1=C\\c1ccc(Cl)c(Cl)c1", "GI50": "8.51 µM (inactive)"}
{"molecule": "CN(C)CCNC(=O)c1cccc2cc3cc(O)ccc3nc12", "GI50": "1.24 µM (inactive)"}

[in] Need GI50, item CNC(=O)C(C)C1CCC2(C)C=CC(=O)C(C)=C2C1O (stereo unspecified)
[out] > 100 µM (inactive)

[in] Name the reported GI50 value associated with the molecule CC1(C)OC[C@@H]([C@H](O)C2C=CC(=O)S2)O1 (stereo partly specified)
[out] 26.4 µM (inactive)

[in] I have this molecule here, CN(C)CN1C(=O)/C(=N\n2c(S)nnc2-c2ccncc2)c2ccccc21 , and I need its recorded GI50.
[out] 37.8 µM (inactive)

[in] What does the record list as GI50 for CNC(=O)CNC(=O)N(C[C@@H]1CCCN1C(=O)[C@H](CC(C)C)NC(=O)OC(C)(C)C)C(C)C ?
[out] > 100 µM (inactive)

[in] Which GI50 reading was recorded for the molecule c1ccc2c(c1)nc1n2CSC1 ?
[out] > 100 µM (inactive)

* * *

Tested on: K562
protocol_text: NCI tumour cell line growth inhibition, 48 h
Active and inactive are the calls of the source. No stated cut-off is given here; in the data, active = GI50 up to about 1.1 µM and inactive = higher.
Would you mind answering with one of these outcomes? Y = active, N = inactive

These solved cases illustrate the format of a correct answer.
{"molecule": "Nc1ncnc2nn(C3OC(CO)C(O)C3O)nc12 (configuration not stated)", "discrete_label": "N"}
{"molecule": "N#C/C(=C\\c1cc(Br)c(O)c(Br)c1)c1ccccn1", "discrete_label": "N"}
{"molecule": "CCCCCCCCCCCCOCCOCCOCCOCCOCCOCC(=O)NC(Cc1ccccc1)C(=O)Oc1ccc([N+](=O)[O-])cc1 (configuration not stated)", "discrete_label": "N"}
{"molecule": "COc1ccc(CC2(O)C3CC4CCC2C4C3)cc1 (configuration not stated)", "discrete_label": "N"}
{"molecule": "COc1c2c(cc3c1C(O)N1CC[C@]34[C@H]3O[C@H]3[C@H](OC)C[C@@H]14)OCO2 (some centres not stated)", "discrete_label": "N"}

[in] GET /call?item= OC(C/C=N/N=C/CC(O)(C(F)(F)Cl)C(F)(F)Cl)(C(F)(F)Cl)C(F)(F)Cl returns the recorded outcome of this test.
[out] N

[in] Query: recorded result category for O=C(OCC(Cl)(Cl)Cl)O[C@@H]1CCCC1(c1ccccc1)c1ccccc1 in this test
[out] N

[in] Look up the recorded call for COC(=O)c1c[nH]c2nc(N3CCOCC3)nn2c1=O in this test.
[out] N

[in] What is the recorded call for this molecule in the test? Cc1cn2c(/C=N/NC(=N)N)c(-c3ccc(Cl)c([N+](=O)[O-])c3)nc2s1
[out] Y

[in] Hello, I am checking results. What call was entered for CC1(c2ccc(Cl)cc2)C=C(c2ccc(Cl)cc2)C(C#N)=C(C(C#N)C#N)N1.CNC (configuration not stated) ?
[out] N

[in] How did this test come out for c1ccc(-c2c(-c3[nH]c4ccccc4c3-c3ccccc3)[nH]c3ccccc23)cc1 ?
[out] N

[in] Answer briefly: the call reported for CC1(O)CC2C(CC1SC1CC3C(CC1(C)O)C3(C)C)C2(C)C (configuration not stated) in this assay.
[out] N

* * *

Tested on: RPMI-8226
protocol_text: NCI tumour cell line growth inhibition, 48 h
The source made the active and inactive calls. No stated cut-off is given here; in the data, active = GI50 up to about 1.1 µM and inactive = higher.
# valid calls are active, inactive; nothing else

Answered examples (3):
{"compound": "N/C(=N\\c1c([N+](=O)[O-])cnc2ccccc12)N1CCOCC1", "discrete_label": "inactive"}
{"compound": "CC1NOC(=O)C1/N=N/c1ccccc1Br (stereo unspecified)", "discrete_label": "inactive"}
{"compound": "Nc1cc(O)c2cc(/N=N/c3ccc(/N=N/c4ccc(/N=N/c5ccc6cc(S(=O)(=O)O)cc(S(=O)(=O)O)c6c5)c5ccccc45)c4cc(S(=O)(=O)O)ccc34)c(S(=O)(=O)O)cc2c1", "discrete_label": "inactive"}

[in] In this assay, the call recorded for CC1(O)CC2C(CC1SC1CC3C(CC1(C)O)C3(C)C)C2(C)C (stereo unspecified) was what?
[out] inactive

[in] Kindly provide the recorded test outcome for the following compound: O=C1C(Nc2ccccc2)=CC2=NCCc3n[nH]c1c32
[out] inactive

[in] Per the assay record, what outcome was assigned to CN(N)c1cc(=O)[nH]c(=O)[nH]1 ?
[out] inactive

[in] Record lookup: outcome of this test for CSc1ncc2c(n1)-c1ccccc1OC2 ?
[out] inactive

* * *

Test system: LXFL 529
protocol_text: NCI tumour cell line growth inhibition, 48 h
Activity calls are given as the source filed them. Rule as the data show it: active = GI50 up to about 1.1 µM and inactive = higher.
metric_name: GI50

{"compound": "O=C(NNc1ccc([N+](=O)[O-])cc1)C1OC(CO)C(O)C1O (stereo not drawn)", "result_value": "38.3 µM (inactive)"}
{"compound": "COc1ccc(Cc2cc(OC)c(OC)c(OC)c2)cc1O", "result_value": "0.82 µM (active)"}
{"compound": "COC(=O)C1=C(O)c2cc3c(cc2[C@H](c2cc(OC)c(OC)c(OC)c2)C1C(=O)OC)OCO3 (stereo partly drawn)", "result_value": "56.5 µM (inactive)"}
{"compound": "COC(=O)C1=C(O)c2cc3c(cc2[C@H](c2cc(OC)c(OC)c(OC)c2)C1)OCO3", "result_value": "37.8 µM (inactive)"}
{"compound": "C/C=C(/CCC1NCCc2c1[nH]c1ccccc21)[Si](C)(C)C (stereo not drawn)", "result_value": "1.85 µM (inactive)"}

[in] Which value of GI50 has been reported for Cn1nc(-c2ccccc2)c(C(=O)/C=C/c2ccc(Cl)cc2)c(N2CCCCC2)c1=O in the records?
[out] 1.8 µM (inactive)

[in] # get_value(readout='GI50', item= CC(C)N(C(=O)C12C3C4C1C1C2C3C41I)C(C)C (stereo not drawn) )
[out] > 100 µM (inactive)
